assay: Half-life determined in vivo in rats; type: ADME, organism-based; details: rat
Observable: half-life (h)
Your answer should be a plain number; it is taken to be in h.

half-life reported for this compound `CCCn1nc(C(C)(C)C)c(C(=O)O)c1Cc1ccc(-c2ccccc2-c2nn[nH]n2)cc1` : 7.4

* * *

experiment: Percent of bioavailability is determined in rhesus monkeys; format: ADME, organism-based, Macaca mulatta; details: rhesus monkey, in vivo
Observable: bioavailability (%)
Your answer should be a plain number; it is taken to be in %.

bioavailability reported for this compound `CCCn1nc(C(C)(C)C)c(C(=O)O)c1Cc1ccc(-c2ccccc2-c2nn[nH]n2)cc1` : 49
